Molecular target: MTHFD1 recombinant human enzyme (Homo sapiens)
Sequence (P11586 2-291 limits assumed): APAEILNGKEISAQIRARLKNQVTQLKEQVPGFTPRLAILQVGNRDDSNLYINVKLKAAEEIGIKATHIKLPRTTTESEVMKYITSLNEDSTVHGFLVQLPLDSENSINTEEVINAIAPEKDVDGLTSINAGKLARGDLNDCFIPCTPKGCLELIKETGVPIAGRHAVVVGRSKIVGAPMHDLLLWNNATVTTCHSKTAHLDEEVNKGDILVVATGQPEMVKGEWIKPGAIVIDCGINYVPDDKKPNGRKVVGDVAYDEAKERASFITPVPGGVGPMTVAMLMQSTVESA
Assay: MTHFD1 inhibition assay (NAD(P)H-Glo luminescence)
Details: MTHFD1 IC50, recombinant human enzyme 200 nM, NADP, band
pIC50: −log10 of the molar value.
I'd be grateful if you could share measured pIC50 for these entries.

I would be grateful if you could share the reported pIC50 for COC[C@H]1CN(c2cc(C)c3c4c(c(=O)oc3c2C)CN(C(=O)c2cc(N(C)C)c(C(=O)NS(=O)(=O)C3(C)CC3)cc2F)CC4)CCN1C [Example 145] . 6.00 to 7.00

I would be grateful if you could share the reported pIC50 for COC[C@H]1CN(c2cc(C)c3c4c(c(=O)oc3c2C)CN(C(=O)c2ccc(C(=O)NS(=O)(=O)N(C)C)c(N3CCC3)c2)CC4)CCN1C [Example 89] . 8.00 to 9.00

I would be grateful if you could share the reported pIC50 for COC[C@H]1CN(c2cc(C)c3c4c(c(=O)oc3c2C)CN(C(=O)c2cc(OC)c(C(=O)NS(=O)(=O)N3CCCC3)c(C(F)(F)F)c2)CC4)CCN1C [Example 154] . 5.30 to 6.00

I would be grateful if you could share the reported pIC50 for COC[C@H]1CN(c2ccc3c4c(c(=O)oc3c2Cl)CN(C(=O)c2ccc(C(=O)NS(=O)(=O)N3CCCC3)c(O[C@@H]3C[C@@H]5C[C@@H]5C3)c2F)CC4)CCN1C [Example 62] . 8.00 to 9.00

I would be grateful if you could share the reported pIC50 for COC[C@H]1CN(c2cc(C)c3c4c(c(=O)oc3c2C)CN(C(=O)c2ccc(C(=O)NS(=O)(=O)N3CCCC3)c(N3CC5CCC3C5)c2)CC4)CCN1C (some centres unmarked) [Example 115] . 7.00 to 8.00

I would be grateful if you could share the reported pIC50 for COC[C@H]1CN(c2ccc3c4c(c(=O)oc3c2C)CN(C(=O)c2cc(N(C)C)c(C(=O)NS(=O)(=O)N3CCC5(CC3)CC5)cc2F)CC4)CCN1C [Example 189] . 5.30 to 6.00

I would be grateful if you could share the reported pIC50 for COC[C@H]1CN(c2cc(C)c3c4c(c(=O)oc3c2C)CN(C(=O)c2ccc(C(=O)NS(=O)(=O)N3CCCC3)c(N3CCCC3)c2F)CC4)CCN1C [Example 98] . 7.00 to 8.00

I would be grateful if you could share the reported pIC50 for COC[C@H]1CN(c2cc(Cl)c3c4c(c(=O)oc3c2C)CN(C(=O)c2cc(N(C)C)c(C(=O)NS(=O)(=O)N3C[C@H]5C[C@@H]3CO5)cc2F)CC4)CCN1C [Example 294] . 6.00 to 7.00

I would be grateful if you could share the reported pIC50 for COC[C@H]1CN(c2cc(C)c3c4c(c(=O)oc3c2C)CN(C(=O)c2ccc(C(=O)NS(=O)(=O)C3(C)CC3)c(OC3C[C@@H]5C[C@@H]5C3)c2F)CC4)CCN1C (some centres unmarked) [Example 37] . 8.00 to 9.00

I would be grateful if you could share the reported pIC50 for CCOc1cc(C(=O)N2CCc3c(c(=O)oc4c(C)c(N5CCN(C)[C@@H](COC)C5)cc(C)c34)C2)c(F)cc1C(=O)NS(=O)(=O)N1CCC(C)(C)C1 [Example 217] . 6.00 to 7.00

I would be grateful if you could share the reported pIC50 for Cc1c(N2CCN(C)[C@@H](C)C2)ccc2c3c(c(=O)oc12)CN(C(=O)c1ccc(NS(C)(=O)=O)c(OC(F)(F)F)c1)CC3 [Reference Example 1, reference compound] . 6.00 to 7.00
